max response overview
assay_summary: Cycloheximide Counterscreen for Small Molecule Inhibitors of Shiga Toxin; note: read at 38.3 µM for the half of the compounds with a filed dose; 0% is about no effect
assay_context: cell reporter, cycloheximide protein synthesis inhibition counterscreen; stronger effect = higher value
Hit rate of the full screen: of about 300,000 compounds, about 37,000 (12%) were called active. The list comes from a sample in which actives are over-represented; it also holds close analogues and randomly drawn compounds.
Give the value in % but do not write % after it.

Before answering, review these 3 worked examples.
compound: O=C(O)CCn1c(O)c(C=C2N=c3ccccc3=N2)sc1=S
max response [%]: -1.81

compound: Cc1ccc(C2C3=C(Nc4[nH]n(-c5ccccc5)c(=O)c42)c2ccccc2C3=O)cc1 (centres undefined)
max response [%]: -3.8

compound: CC(C)(C)OC(=O)N1CCC(NC(=O)c2[nH]cnc2C(=O)N[C@@H](Cc2ccccc2)C(=O)OCc2ccccc2)CC1
max response [%]: -1.27

We now examine a further compound.
IN: Report max response for CC1=C(C)CC(C(=O)NC(C)CCc2ccccc2)C(C(=O)O)C1 (centres undefined) please.
OUT: 12.4
